These entries and their values trace back to the supplement of paper PMC10567573.

B1: KLHL14 (parent)
chain: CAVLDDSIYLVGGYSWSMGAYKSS

- Variants of: B1
- assayOverview: protein stability index of a GFP-peptide fusion (GPS, HEK-293T) (PSI 1-6); higher = more stable;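 note: lentivirally expressed fusions sorted by FACS into six bins by GFP to DsRed ratio, PSI derived from sequencing read proportions per bin multiplied by bin number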
- runParameters: c terminus: a fixed tail appended
recordedMetric: protein stability index
Give bare numbers.

Use these answered entries as a reference point.
Please report the recorded protein stability index for L10T . 1.96

Which measured protein stability index value corresponds to W16G ? 1.95

For each entry beneath this line, provide reported protein stability index.
1. S7E
2. S17V

1.99
1.96
